Test system: MARIMO
assay details: cell viability relative to vehicle control; higher = less cytotoxic;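 also: after 48 h exposure read by CellTiter-Glo luminescence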
recorded conditions: 10 µM; SRSF2 genotype: SRSF2 P95H/wt
Listed molecules paired with reported cell viability
I only need the number, in %, no unit after it.

// known answers, use as guide
[[record]]
molecule = "O=C1C(Cl)=C(N2CCOCC2)C(=O)N1c1ccc(Cl)c(Cl)c1"
unit_abbrev = "%"
meas_value = 88.2

[[record]]
molecule = "COc1cc(C(=O)NC2CCCNC2)cc(OC)c1OC (stereo unspecified) [Troxipide]"
unit_abbrev = "%"
meas_value = 102


Next molecule, please.
Q) Please tell me: cell viability of CCC1=C(C)CN(C(=O)NCCc2ccc(S(=O)(=O)NC(=O)N[C@H]3CC[C@H](C)CC3)cc2)C1=O [Glimepiride] , system MARIMO?
A) 91.7

---

Tested on: MOLM14
assay details: cell viability relative to vehicle control; higher = less cytotoxic
recorded conditions: 10 µM; SRSF2 genotype: SRSF2 wt/wt
In plain terms, low cell viability, meaning strictly below 30%, gives class 1, and everything else gives class 0.

The examples below pair each entry with its known result.
[[record]]
compound = "COc1ccc(-c2nc(N3CCOCC3)c3sc(CN(C)c4ncc(C(=O)NO)cn4)cc3n2)cn1"
system_tested = "MOLM14"
class_assignment = "class 1"

[[record]]
compound = "O=C(c1ccc(Oc2ccccc2)cc1Cl)c1c[nH]c2ncnc(N[C@@H]3CC[C@@H](CO)OC3)c12"
system_tested = "MOLM14"
class_assignment = "class 1"

[[record]]
compound = "OCc1cc([C@@H](O)CNCCCCCCOCCOCc2c(Cl)cccc2Cl)ccc1O [Vilanterol Trifenate]"
system_tested = "MOLM14"
class_assignment = "class 0"

[[record]]
compound = "Oc1ccc2c(c1)OC[C@]1(O)Cc3cc(O)c(O)cc3[C@H]21"
system_tested = "MOLM14"
class_assignment = "class 0"

[[record]]
compound = "Cn1cnc2c(F)c(Nc3ccc(Br)cc3F)c(C(=O)NOCCO)cc21"
system_tested = "MOLM14"
class_assignment = "class 1"

[[record]]
compound = "C[n+]1c2ccccc2nc2ccccc21 [Phenazine methosulfate]"
system_tested = "MOLM14"
class_assignment = "class 1"

[[record]]
compound = "CN1CC[C@@H](c2c(O)cc(O)c3c(=O)cc(-c4ccccc4Cl)oc23)[C@@H]1CO"
system_tested = "MOLM14"
class_assignment = "class 1"

[[record]]
compound = "CN(C)C(=O)c1cc2cnc(Nc3ccc(N4CCNCC4)cn3)nc2n1C1CCCC1"
system_tested = "MOLM14"
class_assignment = "class 0"


From here, focus on the item given below.
Q) API: query returns whether the compound falls strictly under 30% in cell viability. Query: c1cncc(-c2cn[nH]n2)c1
A) class 0

---

Test system: OCI-AML2
assay details: cell viability relative to vehicle control; higher = less cytotoxic
recorded conditions: 10 µM; SRSF2 genotype: wt/wt
Counter-ions that a name gives are not always drawn.
attribute measured: cell viability (%)
I only need the number, in %, no unit after it.

[[record]]
compound = "CCc1nc(C(N)=O)c(Nc2ccc(N3CCC(N4CCN(C)CC4)CC3)c(OC)c2)nc1NC1CCOCC1"
meas_value = 21.3

[[record]]
compound = "Cc1noc(C)c1-c1ccc(-c2cc(C(N)=O)c(NC(N)=O)s2)c(O[C@H]2CCNC2)c1"
meas_value = 105

[[record]]
compound = "COc1ccc(F)c(F)c1C(=O)c1cnc(NC2CCN(S(C)(=O)=O)CC2)nc1N"
meas_value = 15.6

[[record]]
compound = "O=C(c1cn(Cc2cncn2Cc2ccc(Br)cc2)cc1-c1cccc2ccccc12)N1CCOCC1"
meas_value = 32.2

[[record]]
compound = "NCCc1ccc(O)c(O)c1 [Dopamine hydrochloride (Inotropin)]"
meas_value = 105


Q) Return reported cell viability; argument: O=C(Nc1cnn2ccc(N3CCC[C@@H]3c3cc(F)ccc3F)nc12)N1CC[C@H](O)C1 [LOXO-101(sulfate)]
A) 104

Q) Return reported cell viability; argument: CN(C)CC/C=C1/c2ccccc2Sc2ccc(Cl)cc21
A) 68.2

Q) Return reported cell viability; argument: CCCCCCC(O)C(=O)O (centres undefined) [2-Hydroxycaprylic acid]
A) 111

Q) Return reported cell viability; argument: CCCCCCOc1cc(C)c(O)c(C)c1C [HTHQ(1-O-Hexyl-2,3,5-trimethylhydroquinone)]
A) 107

---

Listed compounds paired with reported cell viability
Test system: MOLM14
assay details: cell viability relative to vehicle control; higher = less cytotoxic
recorded conditions: 10 µM; SRSF2 genotype: SRSF2 P95H/wt
I only need the number, in %, no unit after it.

// known answers, use as guide
[[record]]
compound = "Clc1ccc(COC(Cn2ccnc2)c2ccc(Cl)cc2Cl)cc1 (centres undefined) [Econazole nitrate (Spectazole)]"
attribute_measured = "cell viability"
unit_abbrev = "%"
meas_value = 58.2

[[record]]
compound = "CCCCCCCCCCCCCCCC(=O)OC [Methyl palmitate]"
attribute_measured = "cell viability"
unit_abbrev = "%"
meas_value = 103

[[record]]
compound = "O=C(Nc1cc(C(F)(F)F)cc(C(F)(F)F)c1)c1cc(Cl)ccc1O"
attribute_measured = "cell viability"
unit_abbrev = "%"
meas_value = 10.3


Q) Return reported cell viability; argument: COC(=O)c1cc(O)c(O)c(O)c1 [Methyl gallate]
A) 90.6

Q) Return reported cell viability; argument: CC(C)C(NC(=O)c1ccc2ccccc2n1)C(=O)NC(CC(=O)O)C(=O)COc1c(F)cccc1F (centres undefined)
A) 104

Q) Return reported cell viability; argument: CN1CCN(c2ccc3nc(-c4c(N)c5c(F)cccc5[nH]c4=O)[nH]c3c2)CC1 [Dovitinib (TKI258) Lactate]
A) 0.28

Q) Return reported cell viability; argument: Nc1ncnc2c1ncn2C1OC(COP(=O)(O)OP(=O)(O)O)C(O)C1O (centres undefined)
A) 101

Q) Return reported cell viability; argument: COc1cc(S(=O)(=O)O)ccc1O [Sulfogaiacol]
A) 107

Q) Return reported cell viability; argument: C[C@]12CC[C@@H]3c4ccc(O)cc4CC[C@H]3[C@@H]1CC[C@@H]2O [Estradiol]
A) 95.3

---

System: MARIMO
assay details: cell viability relative to vehicle control; higher = less cytotoxic
recorded conditions: 10 µM; SRSF2 genotype: SRSF2 wt/wt
Listed molecules paired with reported cell viability
I only need the number, in %, no unit after it.

// known answers, use as guide
[[record]]
molecule = "Cc1nn(C)c2nc(NNC(=O)Nc3cc(Cl)nc(Cl)c3)cc(C(C)C)c12"
meas_value = 61.8

[[record]]
molecule = "CO[C@H]1C[C@@H]2CC[C@@H](C)[C@@](O)(O2)C(=O)C(=O)N2CCCC[C@H]2C(=O)O[C@H]([C@H](C)C[C@@H]2CC[C@H](n3cnnn3)[C@H](OC)C2)CC(=O)[C@H](C)/C=C(\\C)[C@@H](O)[C@@H](OC)C(=O)[C@H](C)C[C@H](C)/C=C/C=C/C=C/1C [Zotarolimus (ABT-578)]"
meas_value = 76.9

[[record]]
molecule = "O=C(O)c1ccc(Cl)cc1O [4-Chloro-2-hydroxybenzoic acid]"
meas_value = 103

[[record]]
molecule = "C[C@@H]1CN(CC(=O)Nc2ccc3c(c2)Cc2cccc(-c4cc(=O)cc(N5CCOCC5)o4)c2S3)C[C@H](C)O1"
meas_value = 86.9


Q) Return reported cell viability; argument: Cc1cc(Nc2cc(CN3CCOCC3)c3nc(C)c(Cc4ccc(Cl)cc4F)n3n2)n[nH]1
A) 110

Q) Return reported cell viability; argument: COC(=O)N[C@H](C(=O)N1CCC[C@H]1c1ncc(-c2ccc(-c3ccc(-c4cnc([C@@H]5CCCN5C(=O)[C@@H](NC(=O)OC)C(C)C)[nH]4)cc3)cc2)[nH]1)C(C)C [Daclatasvir Digydrochloride]
A) 73.5

Q) Return reported cell viability; argument: COc1ccc(CC2c3cc(OC)c(OC)cc3CC[N+]2(C)CCC(=O)OCCCCCOC(=O)CC[N+]2(C)CCc3cc(OC)c(OC)cc3C2Cc2ccc(OC)c(OC)c2)cc1OC (stereo not drawn) [Atracurium besylate]
A) 84.9

Q) Return reported cell viability; argument: CN1CCN(C2=Nc3cc(Cl)ccc3Nc3ccccc32)CC1 [Clozapine (Clozaril)]
A) 94.4

---

System: MOLM14
assay details: cell viability relative to vehicle control; higher = less cytotoxic
recorded conditions: 10 µM; SRSF2 genotype: SRSF2 wt/wt
Where a name gives a salt, the structure may show the parent alone.
attribute measured: cell viability (%)
I only need the number, in %, no unit after it.

[[record]]
molecule = "COc1cc2c(cc1O)CC[n+]1cc3c(OC)c(OC)ccc3cc1-2 [Jatrorrhizine]"
attribute_measured = "cell viability"
meas_value = 99.8

[[record]]
molecule = "O=C(O)CCCC[C@@H]1SC[C@@H]2NC(=O)N[C@@H]21"
attribute_measured = "cell viability"
meas_value = 108

[[record]]
molecule = "COc1ccc(-c2cc(=O)c3c(OC)c(OC)c(OC)c(OC)c3o2)cc1"
attribute_measured = "cell viability"
meas_value = 102


Q) Return reported cell viability; argument: COC(=O)CC1CC(c2ccc(O)cc2)=NO1 (stereo not given)
A) 102

Q) Return reported cell viability; argument: C[C@H]1O[C@@H](Oc2c(-c3cc(O)c(O)c(O)c3)oc3cc(O)cc(O)c3c2=O)[C@@H](O)[C@@H](O)[C@@H]1O
A) 103

Q) Return reported cell viability; argument: CCc1c(Cl)c(O)c(Cl)c(O)c1C(=O)O[C@H]1[C@H](O)[C@H](OC)[C@H](OC/C2=C\C=C\C[C@H](O)/C(C)=C/[C@H](CC)[C@@H](O[C@@H]3OC(C)(C)[C@@H](OC(=O)C(C)C)[C@H](O)[C@@H]3O)/C(C)=C/C(C)=C/C[C@@H]([C@@H](C)O)OC2=O)O[C@@H]1C
A) 84.6

Q) Return reported cell viability; argument: CCOCCn1c(N2CCCN(C)CC2)nc2ccccc21
A) 107

Q) Return reported cell viability; argument: CO/N=C1\C[C@]2(C[C@@H]3C[C@@H](C/C=C(\C)C[C@@H](C)/C=C/C=C4\CO[C@@H]5[C@H](O)C(C)=C[C@@H](C(=O)O3)[C@]45O)O2)O[C@H](/C(C)=C/C(C)C)[C@H]1C
A) 53.3

Q) Return reported cell viability; argument: Cc1ccc(NC(=O)c2ccc(CN3CCN(C)CC3)cc2)cc1Nc1nccc(-c2cccnc2)n1 [Imatinib Mesylate (STI571)]
A) 94
